Listed compounds paired with reported melting point
Experimental endpoint: melting point

>  <Compound>
O=Cc1ccc(OCCCN2C(=O)c3ccccc3C2=O)cc1

>  <Measured result>
120 to 121 °C

$$$$
>  <Compound>
CCOC(=O)CN(CP(=O)(ONNc1ccccc1)ONNc1ccccc1)C(=O)C(F)(F)F

>  <Measured result>
113 to 116 °C

$$$$
>  <Compound>
CCCCc1nc(Cl)c(CC(=O)O)n1Cc1ccc(OCc2ccccc2C(=O)O)cc1

>  <Measured result>
170 to 172 °C

$$$$
>  <Compound>
Nc1ccc(Oc2ccc3c(c2)OCC(=O)N3)cc1

>  <Measured result>
201 to 202 °C

$$$$
>  <Compound>
CC1(C)Oc2ccc(S(=O)(=O)c3ccccc3)cc2C2OC21 (stereo unspecified)

>  <Measured result>
103 to 105 °C

$$$$
>  <Compound>
CCCCc1nc(CO)c(C(=O)O)n1Cc1ccc(-c2ccccc2C(=O)O)cc1

>  <Measured result>
130 to 140 °C

$$$$

###

Listed compounds paired with reported melting point

>  <Compound>
COCN1C(C)=C(C(=O)OC)C(c2ccccc2C(F)(F)F)C(C(=O)OCOC(=O)C(C)(C)C)=C1C (single isomer, unassigned; (+))

>  <melting point>
110 to 112 °C

$$$$
>  <Compound>
COc1cc(C2=C(c3c(-c4ccccc4)[nH]c4ccccc34)C(=O)NC2=O)cc(OC)c1OC

>  <melting point>
304 °C

$$$$
>  <Compound>
CNC(=O)ON=C1SC(C)C(=O)NC1(C)C (stereo not drawn)

>  <melting point>
190 to 191 °C

$$$$
>  <Compound>
CNC(=O)N(N)c1nnc(C(F)(F)F)s1

>  <melting point>
181 to 182 °C

$$$$
>  <Compound>
O=c1ncc(Cl)cn1CSc1ccc(F)cc1

>  <melting point>
179 °C

$$$$
>  <Compound>
OCc1conc1-c1ccc(F)c(Br)c1

>  <melting point>
93 to 94 °C

$$$$
>  <Compound>
OCc1cc(Cl)ccc1I

>  <melting point>
115 to 117 °C

$$$$
>  <Compound>
O=[N+]([O-])c1c(CBr)cccc1Oc1ccccc1Cl

>  <melting point>
68 to 70 °C

$$$$
>  <Compound>
CC(=O)c1c(C)c(NC(=O)OCC(Cl)(Cl)Cl)c(C)c2c1OCC2c1ccc(C(C)C)cc1 (stereo not drawn)

>  <melting point>
186 to 189 °C

$$$$
>  <Compound>
COc1ccc(S(=O)(=O)N(CC(N)=O)c2ccc(Cl)cc2Cc2ccccc2Cl)cc1

>  <melting point>
150 °C

$$$$
>  <Compound>
CN1C(=O)C(C)(C)C(=O)N(C)c2cc(C(=O)O)ccc21

>  <melting point>
> 275 °C

$$$$
>  <Compound>
CCOC(=O)c1sc(N2CCN(Cc3ccc(Cl)cc3)C2=O)nc1C

>  <melting point>
117 to 119 °C

$$$$
>  <Compound>
O=c1[nH]c2ccccc2c(O)c1-c1csc(-c2ccncc2)n1

>  <melting point>
> 250 °C

$$$$
>  <Compound>
O=C(CCCCc1ccccc1)NC(C(=O)Nc1n[nH]c(=S)s1)c1ccccc1 (stereo not drawn)

>  <melting point>
210 to 211 °C

$$$$
>  <Compound>
O=[N+]([O-])c1c(NCCCO)cc(NCCCO)cc1NCCCO

>  <melting point>
150 °C

$$$$
>  <Compound>
Cc1cc(CCCCCOc2ccc(C#N)cc2)on1

>  <melting point>
57 °C

$$$$
>  <Compound>
O=C(N[C@@H](Cc1ccccc1)C(=O)On1nnc2ccccc21)OCc1ccccc1

>  <melting point>
120 to 125 °C

$$$$
>  <Compound>
COc1cc(C2C3=C(COC3=O)Nc3c2cc(OC)c(OC)c3OC)ccc1O (stereo not drawn)

>  <melting point>
290 to 291 °C

$$$$
>  <Compound>
Cc1oc(-c2ccccc2)nc1COc1ccc(CCC2SC(=O)NC2=O)cc1 (stereo not drawn)

>  <melting point>
146 to 147 °C

$$$$
>  <Compound>
O=C(c1ccccc1)N1CCN(c2cncc(Cl)n2)CC1

>  <melting point>
104 to 105 °C

$$$$
>  <Compound>
CC(=O)Oc1ccc(C=Cc2cc(OC(C)=O)c(OC(C)=O)c(OC(C)=O)c2)cc1

>  <melting point>
162 to 163 °C

$$$$
>  <Compound>
CN(C)C=Nc1nc2ncn(C)c(=S)n2n1

>  <melting point>
> 300 °C

$$$$
>  <Compound>
CCN/C(=C1\C(=O)c2ccccc2S1=O)c1ccccc1 (stereo not drawn)

>  <melting point>
183 to 185 °C

$$$$
>  <Compound>
CC1OCC(=O)N(C(=O)O)C1c1ccc(F)c(F)c1 (single isomer, unassigned; (+))

>  <melting point>
191 to 194 °C

$$$$
>  <Compound>
COC(=O)c1cccc(-c2nnn(Cc3ccc(OC)cc3)n2)c1

>  <melting point>
105 to 106 °C

$$$$
>  <Compound>
CCOC(=O)C(NC(=O)c1cnc2cccc(C)n2c1=O)C(C)C (stereo not drawn)

>  <melting point>
136 °C

$$$$
>  <Compound>
CC(C)(C)NC(=O)c1cc(F)ccc1N

>  <melting point>
77 to 78 °C

$$$$
>  <Compound>
Cc1ccc(-c2ccc3c(c2)OCO3)cc1

>  <melting point>
57 to 60 °C

$$$$
>  <Compound>
Sc1nc(CCCc2cc(Cl)cc(Cl)c2)c[nH]1

>  <melting point>
98 to 99 °C

$$$$
>  <Compound>
CC(C)C1=CC2=CCC3C(C)(C(=O)N(C)C4CCCCC4)CCCC3(C)C2CC1 (stereo not drawn)

>  <melting point>
130 to 132 °C

$$$$
>  <Compound>
CS(=O)C1C=Nc2cc(Br)ccc2C1=O (stereo not drawn)

>  <melting point>
255 to 256 °C

$$$$
>  <Compound>
FC(F)(F)COc1cccc(-c2ccc3nnn(Cc4ccc5ncccc5c4)c3n2)c1

>  <melting point>
151 to 154 °C

$$$$
>  <Compound>
CS(=O)(=O)c1ccc(-c2cnn(-c3ccc(F)cc3)c(=O)c2OCCC2CC2)cc1

>  <melting point>
111 to 117 °C

$$$$
>  <Compound>
COc1c(C#N)cc(-c2c3ccccc3cc3sc4ccccc4c23)cc1C#N

>  <melting point>
214 to 215 °C

$$$$
>  <Compound>
O=C(c1ccccc1)c1cc([N+](=O)[O-])ccc1N(Cc1ccccc1)C(=O)CBr

>  <melting point>
149 °C

$$$$
>  <Compound>
CN1CC[C@@H]2CC(=O)c3c(F)cc(F)cc3[C@@H]2C1 (relative stereo)

>  <melting point>
> 220 °C

$$$$
>  <Compound>
CC(CN1C(C)CCC1C)N1c2ccccc2Sc2ccc(C#N)cc21 (mixture of isomers)

>  <melting point>
105 °C

$$$$
>  <Compound>
O=C(Nc1ccc(C(CC2CCCC2)C(=O)O)cc1)c1cccnc1 (stereo not drawn)

>  <melting point>
160 to 163 °C

$$$$

###

Experimental endpoint: melting point

>  <Compound>
COc1cccc(Oc2c(NS(=O)(=O)c3ccc(C(C)(C)C)cc3)ncnc2OCCOc2ncc(C(C)O)cn2)c1 (stereo not drawn)

>  <Measured result>
133 to 135 °C

$$$$
>  <Compound>
O=C(O)c1ccc(N2C3CCC2CN(CC(=O)N2CC=C(c4cccc5ccsc45)CC2)C3)nc1

>  <Measured result>
121 to 122 °C

$$$$
>  <Compound>
C=CCOc1cc2oc(=O)ccc2cc1C

>  <Measured result>
124 to 125 °C

$$$$

###

Listed molecules paired with reported melting point

>  <Molecule>
CC1(C)Oc2ccc(C#N)cc2C(OC(=O)C2CCCN2S(=O)(=O)c2cccc([N+](=O)[O-])c2)C1Br (stereo unspecified)

>  <melting point>
171 to 174 °C

$$$$
>  <Molecule>
Clc1ccc(CN2CCN=C2C(Cn2ccnc2)c2ccccc2)c(Cl)c1 (stereo unspecified)

>  <melting point>
120 to 135 °C

$$$$
>  <Molecule>
CC1CCN(C2C3=CC(OC3=O)C3C(CC4(C)OC4C2OC(=O)c2ccccc2)OC(=O)C3C)CC1 (stereo unspecified)

>  <melting point>
234 °C

$$$$
>  <Molecule>
COc1ccc(CCNc2nc(C)c(CCO)c(=O)[nH]2)cc1

>  <melting point>
180 °C

$$$$
>  <Molecule>
COc1ccc(CNC(=O)c2ccc3c(c2)c(=O)n(Cc2ccccc2)c(=O)n3C)cc1

>  <melting point>
191 °C

$$$$
>  <Molecule>
S=C(NCc1ccc2c(c1)OCO2)N1CCc2c([nH]c3ccccc23)C1c1ccc2c(c1)OCO2 (stereo unspecified)

>  <melting point>
97 to 100 °C

$$$$
>  <Molecule>
COc1cc(COc2nn(C)cc2/C=C\c2cscn2)ccc1OCc1nc(-c2ccco2)oc1C

>  <melting point>
97 to 98 °C

$$$$
>  <Molecule>
Cn1c(=O)nc(-c2ccccc2Cl)c2ccsc21

>  <melting point>
225 to 226 °C

$$$$
>  <Molecule>
O=C1NC(Cc2c[nH]c3ccccc23)C(=O)N1CCCN1CCOCC1 (stereo unspecified)

>  <melting point>
158 to 160 °C

$$$$
>  <Molecule>
CC(=O)c1ccc2c(c1)C(Cl)Cc1ccc(F)cc1S2 (stereo unspecified)

>  <melting point>
112 to 114 °C

$$$$
>  <Molecule>
CC1OC(Cn2cncn2)(c2ccccc2)C1(C)C (stereo unspecified)

>  <melting point>
102 °C

$$$$
